// data source = patent US11198680B2

# assayed_target: UniProt:O75116
# assay_overview: Direct filter-binding radiometric kinase assay, IC50 determination
# Assay type: biochemical
# condition_description: Compound IC50 ROCK2 10 μM ATP, CRO Eurofins, 10 μM ATP
quantity: pIC50
Conceptually, pIC50 converts a concentration in mol/L into minus its log10.

Entry C[C@@H](N)C1CCN(S(=O)(=O)c2cccc3cnccc23)CC1 [BA-1049 (R)] , UniProt:O75116 data, pIC50 value: 6.62

* * *

# assayed_target: ROCK2 (Homo sapiens (Human), UniProt O75116)
# assay_overview: biochemical
# condition_description: ROCK2 Kd, Table 1
quantity: pKd
Conceptually, pKd converts a concentration in mol/L into minus its log10.

The reported value for C[C@@H](N)C1CCN(S(=O)(=O)c2cccc3cnccc23)CC1 [BA-1049 (R)] in terms of pKd is 7.23

* * *

# assayed_target: ROCK1 (Homo sapiens (Human), UniProt Q13464)
# Sequence (Q13464 2-1354 limits assumed): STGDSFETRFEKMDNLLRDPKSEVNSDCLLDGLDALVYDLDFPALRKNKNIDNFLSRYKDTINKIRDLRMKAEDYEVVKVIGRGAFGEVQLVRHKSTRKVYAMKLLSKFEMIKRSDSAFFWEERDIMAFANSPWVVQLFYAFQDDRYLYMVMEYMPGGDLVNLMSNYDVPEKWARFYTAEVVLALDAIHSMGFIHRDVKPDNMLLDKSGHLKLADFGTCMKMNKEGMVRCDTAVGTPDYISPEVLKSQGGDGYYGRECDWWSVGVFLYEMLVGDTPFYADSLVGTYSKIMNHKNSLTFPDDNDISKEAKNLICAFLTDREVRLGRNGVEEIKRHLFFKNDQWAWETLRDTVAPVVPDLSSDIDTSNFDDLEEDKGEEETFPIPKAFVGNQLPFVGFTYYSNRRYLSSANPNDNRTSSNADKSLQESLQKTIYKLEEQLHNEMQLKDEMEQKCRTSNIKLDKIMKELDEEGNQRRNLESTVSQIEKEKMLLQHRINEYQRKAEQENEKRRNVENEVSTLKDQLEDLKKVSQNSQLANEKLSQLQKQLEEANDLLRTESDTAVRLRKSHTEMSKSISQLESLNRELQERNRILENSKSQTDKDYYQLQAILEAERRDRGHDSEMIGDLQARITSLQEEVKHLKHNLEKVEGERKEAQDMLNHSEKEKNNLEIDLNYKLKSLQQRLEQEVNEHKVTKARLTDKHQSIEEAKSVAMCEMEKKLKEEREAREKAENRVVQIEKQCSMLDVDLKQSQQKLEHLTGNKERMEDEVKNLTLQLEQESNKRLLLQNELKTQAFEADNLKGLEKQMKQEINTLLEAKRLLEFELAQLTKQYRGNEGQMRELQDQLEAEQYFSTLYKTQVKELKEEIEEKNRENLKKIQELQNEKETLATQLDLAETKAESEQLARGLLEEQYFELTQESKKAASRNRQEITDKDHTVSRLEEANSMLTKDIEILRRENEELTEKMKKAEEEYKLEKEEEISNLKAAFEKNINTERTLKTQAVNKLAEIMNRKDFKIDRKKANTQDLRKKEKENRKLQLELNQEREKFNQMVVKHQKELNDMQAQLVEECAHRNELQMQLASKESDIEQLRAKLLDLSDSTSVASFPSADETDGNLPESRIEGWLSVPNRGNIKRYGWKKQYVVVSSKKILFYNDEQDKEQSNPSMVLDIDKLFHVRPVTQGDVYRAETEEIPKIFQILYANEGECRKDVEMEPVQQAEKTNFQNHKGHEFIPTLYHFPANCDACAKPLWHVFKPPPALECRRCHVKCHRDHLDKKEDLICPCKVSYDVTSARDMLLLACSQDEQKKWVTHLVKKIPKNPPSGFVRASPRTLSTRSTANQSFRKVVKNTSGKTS
# assay_overview: Direct filter-binding radiometric kinase assay, IC50 determination
# Type: biochemical
# condition_description: read-out: Compound IC50 ROCK1 70 μM ATP; Km ATP 70 μM; Table 7
quantity: pIC50
Conceptually, pIC50 converts a concentration in mol/L into minus its log10.

The reported value for `C[C@H](N)C1CCN(S(=O)(=O)c2cccc3cnccc23)CC1` in terms of pIC50 is 4.24

* * *

# assayed_target: ROCK1 (Homo sapiens (Human))
# assay_overview: Direct filter-binding radiometric kinase assay, IC50 determination
# Assay type: biochemical
# condition_description: read-out: Compound IC50 ROCK1 10 μM ATP; CRO Reaction Biology, 10 μM ATP; listed as Racemic BA-1049: Lot 2
quantity: pIC50
Conceptually, pIC50 converts a concentration in mol/L into minus its log10.

The reported value for CC(N)C1CCN(S(=O)(=O)c2cccc3cnccc23)CC1 (racemic) [BA-1049] in terms of pIC50 is 5.99

* * *

# assayed_target: UniProtKB Q13464
# assay_overview: Direct filter-binding radiometric kinase assay, IC50 determination
# Format: biochemical
# condition_description: read-out: Compound IC50 ROCK1 10 μM ATP; CRO Reaction Biology, 10 μM ATP; listed as Racemic BA-1049: Lot 1
quantity: IC50 (µM)
The reply should be a number in µM, with the unit left off.

The reported value for CC(N)C1CCN(S(=O)(=O)c2cccc3cnccc23)CC1 (racemic) in terms of IC50 is 1.28

* * *

# assayed_target: ROCK1 (Homo sapiens (Human))
# assay_overview: Direct filter-binding radiometric kinase assay, IC50 determination
# Assay type: biochemical
# condition_description: Compound IC50 ROCK1 70 μM ATP, Km ATP 70 μM; Table 3
quantity: pIC50
Conceptually, pIC50 converts a concentration in mol/L into minus its log10.

The reported value for C[C@@H](N)C1CCN(S(=O)(=O)c2cccc3cnccc23)CC1 [BA-1049 (R)] in terms of pIC50 is 4.53

* * *

# assayed_target: ROCK1 (Homo sapiens (Human), UniProt Q13464)
# assay_overview: biochemical
# condition_description: ROCK1 Kd, Table 1
quantity: Kd
Could you kindly put the unit after your number?

The reported value for C[C@@H](N)C1CCN(S(=O)(=O)c2cccc3cnccc23)CC1 [BA-1049 (R)] in terms of Kd is 110 nM
